# experimental-details: chemical genetic growth profiling, strain panel (AID 1159580);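 note: tested at 20 µM; growth read once vehicle control cultures reached saturation at 30 °C; 1 = growth at the plate median or of vehicle wells; lower values mean less growth of the strain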
# condition-details: S. cerevisiae deletion strains, growth OD, locus YMR219W, strain ESC1, active compounds read low
Screen size: about 5,500 compounds; about 2,000 (36%) were called active. Inconclusive results (about 18%) are left out. This is one part of the list.
Examples of compounds with documented normalized growth follow.
Number only, no unit.

> print(dat)
                                   compound  reported.value
1                  CCCc1cc(=O)c2ccc(O)cc2o1           0.998
2   COc1ccc(OC)c(S(=O)(=O)Oc2ccc(C#N)cc2)c1            1.01
3  O=C(Oc1ccc(C(F)(F)F)cc1[N+](=O)[O-])c1c(F)cccc1F            0.14

// field: normalized growth; key: N#CCOc1ccc(Cl)cc1Cl ; value = 0.955

So, COc1cc2c(cc1OC)CC(=O)OC2 ? Its normalized growth was 0.971

----------
# experimental-details: chemical genetic growth profiling, strain panel (AID 1159580);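 note: tested at 20 µM; growth read once vehicle control cultures reached saturation at 30 °C; 1 = growth at the plate median or of vehicle wells; lower values mean less growth of the strain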
# condition-details: S. cerevisiae deletion strains, growth OD, locus YNL153C, strain GIM3
Screen size: about 5,500 compounds; about 2,000 (36%) were called active. Inconclusive results (about 18%) are left out. Rule as the data show it: active = normalized growth mostly below about 0.91 (no sharp cut-off); inconclusive = no clear call, values can overlap the other calls; inactive = mostly above about 0.92. The list shows a part of the results.
Select the correct class. Options are Yes = active, No = inactive and nothing else.

Example results:
compound	discrete-label
N=c1ccn2c(n1)O[C@@H]1C2O[C@H](CO)[C@H]1O (stereo partly drawn)	No
COc1ccc(C2=C(C(C)=O)C(C)=NC(=S)C2C#N)cc1 (stereo not drawn)	No
O=C1C=CC(=C(c2ccc(O)cc2)c2ccc(O)cc2)C=C1	No

Prompt: Call for entry COc1ccc(OC)c(S(=O)(=O)Oc2ccc(C#N)cc2)c1 :
Response: No

Prompt: Fill in: this test's call for COC1=CC(=O)C[C@@H](C)[C@]12Oc1c(Cl)c(OC)cc(OC)c1C2=O is ___
Response: No

Prompt: Answer briefly: the call reported for C=Cc1c2[nH]c(c1C)Cc1[nH]c(c(C)c1C=C)C=C1N=C(C=c3[nH]c(c(C)c3CCC(=O)O)=C2)C(CCC(=O)O)=C1C in this assay.
Response: No

Prompt: Tell me the assay call for CCOC(=O)c1c(C)cc(O)c(C=O)c1O please.
Response: Yes

Prompt: # lookup: test call for O=C(CSc1nnnn1-c1ccccc1)NC1Cc2ccccc2C1
Response: No

Prompt: Status in this test for Cn1cnc(CCN)c1 ?
Response: No

Prompt: Give the logged outcome of this assay for the following compound: CC(=O)OCC(=O)[C@@]1(O)CCC2C3CCC4=CC(=O)CC[C@]4(C)C3C(=O)C[C@@]21C (stereo partly drawn)
Response: No

----------
# experimental-details: chemical genetic growth profiling, strain panel (AID 1159580);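 note: tested at 20 µM; growth read once vehicle control cultures reached saturation at 30 °C; 1 = growth at the plate median or of vehicle wells; lower values mean less growth of the strain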
# condition-details: S. cerevisiae deletion strains, growth OD, locus YLR113W, strain HOG1
About 2,000 (36%) of roughly 5,500 compounds were called active. About 18% were inconclusive and are not listed. Cut-off read from the data, not from the text of the source: active = normalized growth mostly below about 0.91 (no sharp cut-off); inconclusive = no clear call, values can overlap the other calls; inactive = mostly above about 0.92. This is one part of the list.
Answer with one of the outcomes label 1 (active), label 0 (inactive)

Prompt: Which outcome did this test record for the compound CN(C)c1ccc(C(=C2C=CC(=[N+](C)C)C=C2)c2ccc(N(C)C)cc2)cc1 ?
Response: label 1

Prompt: # fetch the recorded call for CC1=C(C(C)O)C2=NC1C=c1[nH]c(c(C)c1C(C)O)=Cc1[nH]c(c(CCC(=O)O)c1C)C=c1[nH]c(c(C)c1CCC(=O)O)=C2 (stereo not drawn) here
Response: label 1

Prompt: Called result for N=c1ccn2c(n1)O[C@@H]1C2O[C@H](CO)[C@H]1O (stereo partly drawn)
Response: label 0
